Attribution: patent US20190055314A1

# TGT: T1, human CD137-His6 (Sino Biological #10041-H08H) (human, UniProt Q07011 24-186)
# T1 construct: Bought; also called human CD137 protein; not shown: His6 tag
# ASSAY_COMMENT: SPR Biacore, IgG
Could you please mark Satisfied for values of kon below 200000 M⁻¹ s⁻¹ and Not satisfied for values at or above it?

Worked cases, answers included:
>  <BINDER>
AG10125 (antibody, human IgG4 S228P, kappa, V domains shown, also called IgG of Fab 5314) VH: EVQLVESGGGLVQPGGSLRLSCAASGFSLSTGGVAVGWIRQAPGKGLEWLALIDWAGDKSYSTSLKSRLTISRDNSKNTLYLQLNSLRAEDTAVYYCARGGSDTVLGDWFAYWGQGTLVTVSS VL: DIQLTQSPSSLSASVGDRVTITCRASQGVSPYLAWYQQKPGKAPKLLIYDASNRATGIPSRFSGSGSGTDFTLTISSLQPEDFATYYCQQGYSTWTFGQGTKVEIKR

>  <CLASS>
Satisfied

$$$$
>  <BINDER>
AG10128 (antibody, human IgG4 S228P, kappa, V domains shown, also called IgG of Fab 5342) VH: EVQLVESGGGLVQPGGSLRLSCAASGFSLSTGGVAVGWIRQAPGKGLEWLALIDWAGDKSYSTSLKSRLTISRDNSKNTLYLQLNSLRAEDTAVYYCAREGEDAVTGDWFAYWGQGTLVTVSS VL: DIQLTQSPSSLSASVGDRVTITCQASQDIRTYLAWYQQKPGKAPKLLIYDASNRATGIPSRFSGSGSGTDFTLTISSLQPEDFATYYCQQGYSIWTFGQGTKVEIKR

>  <CLASS>
Satisfied

$$$$

**Query** Report whether reported kon is lower than 200000 M⁻¹ s⁻¹ (strictly) for AG10062 (antibody, human IgG4 S228P, kappa, V domains shown, also called IgG of Fab 5404) VH: EVQLVESGGGLVQPGGSLRLSCAASGYSISSGYHWAWIRQAPGKGLEWIGEIYHSGSTYYSPSLKSRVTISRDNSKNTLYLQLNSLRAEDTAVYYCARSPYYYGVFDYWGQGTLVTVSS VL: DIQLTQSPSSLSASVGDRVTITCSASSRVGSVYWYQQKPGKAPKLLIYDASNLETGVPSRFSGSGSGTDFTLTISSLQPEDFATYYCQQYTHDPVTFGQGTKVEIKR
**Result** Satisfied

**Query** Moving on to AG10129 (antibody, human IgG4 S228P, kappa, V domains shown, also called IgG of Fab 5353) VH: EVQLVESGGGLVQPGGSLRLSCAASGFTFSSYWIHWVRQAPGKGLEWVSVISGDGDTTYYADSVKGRFTISRDNSKNTLYLQLNSLRAEDTAVYYCARSRGLVLDAFDYWGQGTLVTVSS VL: DIQLTQSPSSLSASVGDRVTITCRASQSVSGRFLAWYQQKPGKAPKLLIYDASSLESGVPSRFSGSGSGTDFTLTISSLQPEDFATYYCQQYDYWPPYTFGQGTKVEIKR
**Result** Not satisfied

**Query** Moving on to AG10085 (antibody, human IgG4 S228P, kappa, V domains shown, also called IgG of Fab 5367) VH: EVQLVESGGGLVQPGGSLRLSCAASGFSLSTSGVGVGWIRQAPGKGLEWVSGISGAGDSTYYADSVKGRFTISRDNSKNTLYLQLNSLRAEDTAVYYCAREGSDTVLGDWFAYWGQGTLVTVSS VL: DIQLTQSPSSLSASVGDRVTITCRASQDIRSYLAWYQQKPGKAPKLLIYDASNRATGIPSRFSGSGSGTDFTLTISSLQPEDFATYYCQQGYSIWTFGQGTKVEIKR
**Result** Satisfied
